Recorded measurements of abundance fitness, one per entry
B1: Chromodomain-helicase-DNA-binding protein 4, residues 623 to 675; numbered along this chain, Q14839 (parent)
chain: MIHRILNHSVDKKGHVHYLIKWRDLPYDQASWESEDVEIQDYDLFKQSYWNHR

Variants of: B1
Experiment: abundance fitness (aPCA) (normalised: wild type 0, dead -1); higher = more abundant; growth selection in yeast, the domain comes from the species named
Conditions: Homo sapiens
Enter the number alone.

Tell me the measured abundance fitness of D24F , please. -0.423

More entries:
Tell me the measured abundance fitness of P26C , please. -0.701

Tell me the measured abundance fitness of D11N , please. -0.201

Tell me the measured abundance fitness of R23M , please. -0.265

Tell me the measured abundance fitness of H17P , please. -0.91

Tell me the measured abundance fitness of W32R , please. -0.724

Tell me the measured abundance fitness of G14W , please. -0.726

Tell me the measured abundance fitness of L19N , please. -0.262

Tell me the measured abundance fitness of P26Q , please. -0.602

Tell me the measured abundance fitness of K13M , please. -0.162

Tell me the measured abundance fitness of K21I , please. -0.581

Tell me the measured abundance fitness of I20R , please. -0.722

Tell me the measured abundance fitness of G14P , please. -0.714

Tell me the measured abundance fitness of G14Q , please. -0.714

Tell me the measured abundance fitness of P26Y , please. -0.339

Tell me the measured abundance fitness of W32L , please. -0.732
